- experimentalDetails: Binding affinity to mGluR by radioligand binding assay
- Set-up: species or system Homo sapiens
pKi: −log10 of the molar value.
readoutName: pKi

COc1cccc(N2CCN(CCCCn3ncc(=O)n(C)c3=O)CC2)c1 : < 5.00

* * *

- assayedSystem: Glutamate [NMDA] receptor
- experimentalDetails: Binding affinity to NMDA receptor by radioligand binding assay
pKi: −log10 of the molar value.
readoutName: pKi

COc1cccc(N2CCN(CCCCn3ncc(=O)n(C)c3=O)CC2)c1 : < 5.00

* * *

- assayedSystem: Histamine H2 receptor (Homo sapiens, UniProt P25021)
readoutName: Ki (µM)

COc1cccc(N2CCN(CCCCn3ncc(=O)n(C)c3=O)CC2)c1 : 2.13

* * *

- assayedSystem: UniProtKB P41595
- Sequence (P41595 whole entry): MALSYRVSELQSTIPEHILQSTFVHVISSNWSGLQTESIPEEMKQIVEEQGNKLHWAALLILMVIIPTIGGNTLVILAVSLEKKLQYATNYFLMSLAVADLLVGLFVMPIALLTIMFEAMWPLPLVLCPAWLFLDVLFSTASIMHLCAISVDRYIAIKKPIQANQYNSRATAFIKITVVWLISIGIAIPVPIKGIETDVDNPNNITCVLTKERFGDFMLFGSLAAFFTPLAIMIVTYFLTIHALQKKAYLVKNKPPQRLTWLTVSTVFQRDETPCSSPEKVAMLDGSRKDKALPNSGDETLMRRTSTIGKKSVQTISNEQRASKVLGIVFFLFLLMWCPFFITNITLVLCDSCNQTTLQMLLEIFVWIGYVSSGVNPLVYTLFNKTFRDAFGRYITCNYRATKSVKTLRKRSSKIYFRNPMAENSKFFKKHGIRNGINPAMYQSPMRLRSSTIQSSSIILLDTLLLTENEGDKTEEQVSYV
readoutName: Ki (nM)

COc1cccc(N2CCN(CCCCn3ncc(=O)n(C)c3=O)CC2)c1 : 33.7

* * *

- assayedSystem: UniProt:P35462
- Sequence (P35462 whole entry): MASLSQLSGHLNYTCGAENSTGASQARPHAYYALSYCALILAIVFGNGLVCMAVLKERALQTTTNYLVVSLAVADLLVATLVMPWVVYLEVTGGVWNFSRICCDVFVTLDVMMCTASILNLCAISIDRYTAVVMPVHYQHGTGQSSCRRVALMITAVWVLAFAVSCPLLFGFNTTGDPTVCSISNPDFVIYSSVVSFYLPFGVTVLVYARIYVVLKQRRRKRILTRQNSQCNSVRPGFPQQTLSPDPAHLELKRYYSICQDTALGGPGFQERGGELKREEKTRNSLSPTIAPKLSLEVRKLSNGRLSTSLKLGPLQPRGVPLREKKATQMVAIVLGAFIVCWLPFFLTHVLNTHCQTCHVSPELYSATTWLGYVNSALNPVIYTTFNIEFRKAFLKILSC
readoutName: Ki

COc1cccc(N2CCN(CCCCn3ncc(=O)n(C)c3=O)CC2)c1 : > 10 µM

* * *

- assayedSystem: Translocator protein (Homo sapiens, UniProt P30536)
- Sequence (P30536 whole entry): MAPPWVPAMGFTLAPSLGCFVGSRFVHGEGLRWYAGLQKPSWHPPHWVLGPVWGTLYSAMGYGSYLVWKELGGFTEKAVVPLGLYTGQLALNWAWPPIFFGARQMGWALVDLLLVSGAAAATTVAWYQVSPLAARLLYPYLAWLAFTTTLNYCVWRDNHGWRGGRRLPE
readoutName: Ki

COc1cccc(N2CCN(CCCCn3ncc(=O)n(C)c3=O)CC2)c1 : > 10 µM

* * *

- assayedSystem: D(2) dopamine receptor (Homo sapiens, UniProt P14416)
- Sequence (P14416 whole entry): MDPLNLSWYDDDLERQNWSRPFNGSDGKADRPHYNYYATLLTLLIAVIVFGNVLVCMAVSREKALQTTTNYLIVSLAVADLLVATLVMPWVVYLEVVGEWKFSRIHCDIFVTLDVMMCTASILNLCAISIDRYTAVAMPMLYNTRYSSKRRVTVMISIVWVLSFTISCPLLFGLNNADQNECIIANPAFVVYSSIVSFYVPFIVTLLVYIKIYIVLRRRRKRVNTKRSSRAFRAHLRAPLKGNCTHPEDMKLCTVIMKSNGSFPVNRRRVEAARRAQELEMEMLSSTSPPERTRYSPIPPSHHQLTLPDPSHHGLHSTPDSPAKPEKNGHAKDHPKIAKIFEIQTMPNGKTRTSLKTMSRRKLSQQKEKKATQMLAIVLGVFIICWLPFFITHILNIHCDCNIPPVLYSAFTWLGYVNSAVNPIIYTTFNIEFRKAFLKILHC
- experimentalDetails: Binding affinity to D2 dopamine receptor by radioligand binding assay
readoutName: Ki (nM)

COc1cccc(N2CCN(CCCCn3ncc(=O)n(C)c3=O)CC2)c1 : 2580

* * *

- assayedSystem: 5-hydroxytryptamine receptor 1E (Homo sapiens)
- Sequence (P28566 whole entry): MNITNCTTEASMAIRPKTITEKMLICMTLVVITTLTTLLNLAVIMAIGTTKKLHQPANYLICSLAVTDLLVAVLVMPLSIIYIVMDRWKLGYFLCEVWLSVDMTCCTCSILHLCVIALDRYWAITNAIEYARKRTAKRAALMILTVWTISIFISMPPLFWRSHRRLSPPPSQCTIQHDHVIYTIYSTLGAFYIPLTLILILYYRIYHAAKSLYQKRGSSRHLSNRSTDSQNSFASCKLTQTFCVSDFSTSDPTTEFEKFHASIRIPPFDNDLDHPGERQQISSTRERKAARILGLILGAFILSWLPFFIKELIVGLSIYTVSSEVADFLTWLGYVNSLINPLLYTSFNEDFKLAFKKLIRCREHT
readoutName: Ki

COc1cccc(N2CCN(CCCCn3ncc(=O)n(C)c3=O)CC2)c1 : > 10 µM

* * *

- assayedSystem: Voltage-gated inwardly rectifying potassium channel KCNH2 (Homo sapiens, UniProt Q12809)
- Sequence (Q12809 whole entry): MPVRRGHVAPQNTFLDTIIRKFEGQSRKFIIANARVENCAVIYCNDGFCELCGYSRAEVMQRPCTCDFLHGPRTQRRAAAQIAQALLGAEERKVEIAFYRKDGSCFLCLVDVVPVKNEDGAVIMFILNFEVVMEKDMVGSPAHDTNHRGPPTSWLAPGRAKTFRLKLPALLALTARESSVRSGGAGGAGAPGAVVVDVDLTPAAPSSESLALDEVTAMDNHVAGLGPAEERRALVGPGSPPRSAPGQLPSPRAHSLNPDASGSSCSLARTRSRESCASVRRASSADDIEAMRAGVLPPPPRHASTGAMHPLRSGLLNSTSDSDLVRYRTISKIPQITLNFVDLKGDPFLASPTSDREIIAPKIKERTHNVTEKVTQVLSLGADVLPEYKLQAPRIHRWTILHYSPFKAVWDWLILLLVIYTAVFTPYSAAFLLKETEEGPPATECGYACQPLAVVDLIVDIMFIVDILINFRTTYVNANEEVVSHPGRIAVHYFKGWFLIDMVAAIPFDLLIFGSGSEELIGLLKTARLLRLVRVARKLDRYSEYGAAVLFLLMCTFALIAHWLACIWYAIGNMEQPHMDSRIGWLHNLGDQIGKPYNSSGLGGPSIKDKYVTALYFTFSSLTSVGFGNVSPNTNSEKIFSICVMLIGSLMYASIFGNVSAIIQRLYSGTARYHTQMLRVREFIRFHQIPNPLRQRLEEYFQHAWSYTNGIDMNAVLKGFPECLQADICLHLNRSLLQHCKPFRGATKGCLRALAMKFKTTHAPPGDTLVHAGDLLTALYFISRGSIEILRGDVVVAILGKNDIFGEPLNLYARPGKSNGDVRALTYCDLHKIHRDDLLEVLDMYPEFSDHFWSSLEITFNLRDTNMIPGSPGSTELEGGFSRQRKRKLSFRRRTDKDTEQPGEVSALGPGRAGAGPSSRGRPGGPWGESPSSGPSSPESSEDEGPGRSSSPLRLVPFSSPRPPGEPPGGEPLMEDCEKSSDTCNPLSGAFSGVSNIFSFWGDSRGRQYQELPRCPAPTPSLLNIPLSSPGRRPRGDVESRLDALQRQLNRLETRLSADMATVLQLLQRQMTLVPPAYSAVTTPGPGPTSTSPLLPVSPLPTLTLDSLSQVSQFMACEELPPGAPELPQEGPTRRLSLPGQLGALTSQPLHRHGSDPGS
pKi: −log10 of the molar value.
readoutName: pKi

COc1cccc(N2CCN(CCCCn3ncc(=O)n(C)c3=O)CC2)c1 : < 5.00

* * *

- assayedSystem: Glutamate receptor ionotropic AMPA (Homo sapiens, UniProt P42261+P42262+P42263+P48058)
- experimentalDetails: Binding affinity to AMPA receptor by radioligand binding assay
readoutName: Ki

COc1cccc(N2CCN(CCCCn3ncc(=O)n(C)c3=O)CC2)c1 : > 10 µM

* * *

- experimentalDetails: Binding affinity to EP receptor by radioligand binding assay
readoutName: Ki

COc1cccc(N2CCN(CCCCn3ncc(=O)n(C)c3=O)CC2)c1 : > 10 µM

* * *

- assayedSystem: Histamine H4 receptor (Homo sapiens, UniProt Q9H3N8)
- Sequence (Q9H3N8 whole entry): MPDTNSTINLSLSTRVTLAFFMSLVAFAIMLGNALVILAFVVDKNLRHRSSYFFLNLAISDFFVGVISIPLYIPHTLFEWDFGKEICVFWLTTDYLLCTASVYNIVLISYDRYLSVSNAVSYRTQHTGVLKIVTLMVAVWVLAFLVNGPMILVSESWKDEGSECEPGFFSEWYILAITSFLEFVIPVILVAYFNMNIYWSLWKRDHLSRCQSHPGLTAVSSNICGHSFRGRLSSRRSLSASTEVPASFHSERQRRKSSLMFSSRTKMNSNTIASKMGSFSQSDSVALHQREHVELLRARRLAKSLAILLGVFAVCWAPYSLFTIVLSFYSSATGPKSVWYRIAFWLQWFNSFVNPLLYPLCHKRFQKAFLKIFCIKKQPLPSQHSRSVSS
readoutName: Ki

COc1cccc(N2CCN(CCCCn3ncc(=O)n(C)c3=O)CC2)c1 : > 10 µM

* * *

- assayedSystem: Alpha-1A adrenergic receptor (Homo sapiens, UniProt P35348)
- Sequence (P35348 whole entry): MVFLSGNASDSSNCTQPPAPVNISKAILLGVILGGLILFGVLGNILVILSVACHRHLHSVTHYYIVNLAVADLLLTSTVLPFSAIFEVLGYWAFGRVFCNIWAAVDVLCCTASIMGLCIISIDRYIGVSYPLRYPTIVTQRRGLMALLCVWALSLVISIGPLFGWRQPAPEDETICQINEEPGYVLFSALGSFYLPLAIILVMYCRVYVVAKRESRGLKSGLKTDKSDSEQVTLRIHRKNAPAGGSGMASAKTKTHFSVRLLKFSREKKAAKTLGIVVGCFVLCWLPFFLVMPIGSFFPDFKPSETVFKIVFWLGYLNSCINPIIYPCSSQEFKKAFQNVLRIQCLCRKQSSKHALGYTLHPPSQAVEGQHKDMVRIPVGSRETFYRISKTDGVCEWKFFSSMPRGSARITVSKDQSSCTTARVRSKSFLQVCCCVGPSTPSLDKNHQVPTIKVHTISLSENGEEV
readoutName: Ki (nM)

COc1cccc(N2CCN(CCCCn3ncc(=O)n(C)c3=O)CC2)c1 : 413

* * *

- assayedSystem: Delta-type opioid receptor (Homo sapiens, UniProt P41143)
- Sequence (P41143 whole entry): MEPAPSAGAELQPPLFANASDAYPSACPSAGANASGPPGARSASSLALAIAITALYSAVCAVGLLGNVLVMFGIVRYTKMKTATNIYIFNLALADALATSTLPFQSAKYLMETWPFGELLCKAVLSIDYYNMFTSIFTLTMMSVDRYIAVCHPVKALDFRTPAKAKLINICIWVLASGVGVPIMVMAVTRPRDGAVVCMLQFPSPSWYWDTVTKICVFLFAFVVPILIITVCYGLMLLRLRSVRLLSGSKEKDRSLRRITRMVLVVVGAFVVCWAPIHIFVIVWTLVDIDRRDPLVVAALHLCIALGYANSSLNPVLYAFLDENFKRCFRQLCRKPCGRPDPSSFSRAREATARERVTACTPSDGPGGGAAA
- experimentalDetails: Binding affinity to DOR by radioligand binding assay
pKi: −log10 of the molar value.
readoutName: pKi

COc1cccc(N2CCN(CCCCn3ncc(=O)n(C)c3=O)CC2)c1 : < 5.00

* * *

- experimentalDetails: Binding affinity to calcium channel by radioligand binding assay
readoutName: Ki

COc1cccc(N2CCN(CCCCn3ncc(=O)n(C)c3=O)CC2)c1 : > 10 µM

* * *

- assayedSystem: 5-hydroxytryptamine receptor 2A (Homo sapiens)
- Sequence (P28223 whole entry): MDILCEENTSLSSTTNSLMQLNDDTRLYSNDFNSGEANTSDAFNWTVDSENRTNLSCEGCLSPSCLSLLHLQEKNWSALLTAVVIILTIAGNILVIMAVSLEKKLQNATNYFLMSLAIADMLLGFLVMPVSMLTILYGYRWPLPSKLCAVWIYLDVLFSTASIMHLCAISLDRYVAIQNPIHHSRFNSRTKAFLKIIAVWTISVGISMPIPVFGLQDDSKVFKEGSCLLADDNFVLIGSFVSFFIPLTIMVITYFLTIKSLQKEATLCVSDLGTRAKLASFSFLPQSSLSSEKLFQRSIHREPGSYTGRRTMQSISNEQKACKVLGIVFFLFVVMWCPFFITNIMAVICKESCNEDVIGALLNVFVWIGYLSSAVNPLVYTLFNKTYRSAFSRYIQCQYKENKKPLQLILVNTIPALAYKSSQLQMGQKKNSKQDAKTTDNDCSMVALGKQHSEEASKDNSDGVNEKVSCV
pKi: −log10 of the molar value.
readoutName: pKi

COc1cccc(N2CCN(CCCCn3ncc(=O)n(C)c3=O)CC2)c1 : 5.68

* * *

- experimentalDetails: Binding affinity to sodium channel by radioligand binding assay
readoutName: Ki

COc1cccc(N2CCN(CCCCn3ncc(=O)n(C)c3=O)CC2)c1 : > 10 µM

* * *

- experimentalDetails: Binding affinity to V receptor by radioligand binding assay
readoutName: Ki

COc1cccc(N2CCN(CCCCn3ncc(=O)n(C)c3=O)CC2)c1 : > 10 µM
